- target: MCL1/Bim (Homo sapiens (Human))
- Sequence (Q07820 171-327): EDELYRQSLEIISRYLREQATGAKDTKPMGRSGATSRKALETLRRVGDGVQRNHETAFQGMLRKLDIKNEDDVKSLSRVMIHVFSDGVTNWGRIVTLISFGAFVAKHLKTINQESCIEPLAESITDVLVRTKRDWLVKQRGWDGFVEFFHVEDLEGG
- protocol summary: MCL1/Bim Binding AlphaLISA Assay
- stated conditions: recombinant human 6xHis-MCL1 (171-327), biotinylated Bim peptide (51-76)
quantity: IC50 (nM)

Recorded results for 5 compounds are shown here.
CO[C@H]1/C=C/C[C@H](C)[C@@H](C)[S@@](=O)(NC(=O)COC2CCOCC2)=NC(=O)c2ccc3c(c2)N(C[C@@H]2CC[C@H]21)C[C@]1(CO3)C[C@@H]2C[C@@H]2c2cc(Cl)ccc21 [Example 169]
0.048
CCn1cc(C(=O)N[S@@]2(=O)=NC(=O)c3ccc4c(c3)N(C[C@@H]3CC[C@H]3[C@@H](OC)/C=C/C[C@H](C)[C@H]2C)C[C@]2(CO4)C[C@@H]3C[C@@H]3c3cc(Cl)ccc32)cn1 [Example 170]
0.155
COc1nn(C)cc1C(=O)N[S@@]1(=O)=NC(=O)c2ccc3c(c2)N(C[C@@H]2CC[C@H]2[C@H](OC)[C@@H](OC)/C=C\[C@H](C)C1)C[C@@]1(CCCc2cc(Cl)ccc21)CO3 [Example 132]
0.833
COc1nn(C)cc1C(=O)N[S@@]1(=O)=NC(=O)c2ccc3c(c2)N(C[C@@H]2CC[C@H]2[C@@H](OC)/C=C/[C@H](OCCN2CC(OC)C2)[C@H](C)C1)C[C@@]1(CCCc2cc(Cl)ccc21)CO3 [Example 81]
0.011
CCn1cc(C(=O)N[S@@]2(=O)=NC(=O)c3ccc4c(n3)N(C[C@@H]3CC[C@H]3[C@@H](OC)/C=C/C[C@H](C)[C@H]2C)C[C@@]2(CCCc3cc(Cl)ccc32)CO4)cn1 [Example 199]
0.17

A. COc1nn(C)cc1C(=O)N[S@@]1(=O)=NC(=O)c2ccc3c(c2)N(C[C@@H]2CC[C@H]2[C@@H](OC)/C=C/[C@H](OCCn2ccnc2)[C@H](C)C1)C[C@@]1(CCCc2cc(Cl)ccc21)CO3 [Example 88]
B. COc1nn(C)cc1C(=O)N[S@@]1(=O)=NC(=O)c2ccc3c(c2)N(C[C@@H]2CC[C@H]2[C@@H](OC)C[C@H]2CCO[C@@H]2[C@H](C)[C@H]1C)C[C@@]1(CCCc2cc(Cl)ccc21)CO3 [Example 159]
**Query** Parameter check: reported IC50 is higher for which label, A or B ? Identify your pick by its label.
**Result** B

A. COc1nnc(NS2(=O)=NC(=O)c3ccc4c(c3)N(C[C@@H]3CC[C@H]3[C@@H](OC)/C=C/C[C@H](C)C2)C[C@@]2(CCCc3cc(Cl)ccc32)CO4)c2nn(C)cc12 (stereo partly drawn) [Example 17]
B. CO[C@H]1/C=C/C[C@H](C)C[S@@](=O)(NC(=O)c2cnn(C)c2)=NC(=O)c2ccc3c(n2)N(C[C@@H]2CC[C@H]21)C[C@@]1(CCCc2cc(Cl)ccc21)CO3 [Example 185]
**Query** Parameter check: reported IC50 is higher for which label, A or B ? Identify your pick by its label.
**Result** A
